In this section we review reported ARE-luciferase IC50 values for a set of binders.
# subject.of.test: T1, human BMP-11 (GDF-11; R&D Systems) (human, UniProt O95390 299-407)
# T1 sequence (looked up): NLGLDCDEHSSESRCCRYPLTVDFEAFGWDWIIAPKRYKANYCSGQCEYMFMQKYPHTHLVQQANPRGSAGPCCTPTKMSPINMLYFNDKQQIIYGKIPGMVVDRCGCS
# measurement.protocol: cell-based or functional assay
Provide the reading as a plain figure in nM.

Known ARE-luciferase IC50 results, listed for orientation:
{"columns": ["binder", "ARE-luciferase IC50 / nM"],
 "data": [
  ["ATI-1107 [40K 2-branch PEG] (designed binder, 40K 2-branch PEG on the Cys of the GSGC tail, cysteine mutant of 1979_B06) MGVSDVPRDLEVVAATPTSLLISWSLPHAGHVNYYRITYGETGGNSPVQEFTVPGRGVTATISGLKPGVDYTITVYAVTLTKSQMIHYMPISINYRTGSGCHHHHHH", 888],
  ["ATI-1278 [40K 2-branch PEG] (designed binder, 40K 2-branch PEG on the Cys of the EGSGC tail, cysteine mutant of 2525_D05) MGVSDVPRDLEVVAATPTSLLISWSLPYAGHLNYYRITYGETGGNSPVQEFTVPGRGVTATISGLKPGVDYTITVYAVTLTKSQLIHYMPISINYRTEGSGCHHHHHH", 1.1]
]}

Please find the next binder below.
Entry ATI-1341 [20K Bis-PEG] (designed binder, two Adnectins joined through their tail Cys to the two ends of a 20 kDa bis-PEG, bivalent PEGylated form of the 2987_H07 cysteine mutant) MGVSDVPRDLEVVAATPTSLLISWTLPHAGRAHYYRITYGETGGNSPVQEFTVPGRGVTATISGLKPGVDYTITVYAVTVTTTKVIHYKPISINYRTEGSGCHHHHHH : reported ARE-luciferase IC50 = ?
0.14
